For each record, write down the corresponding pIC50.
Tested on: Ba/F3 Parental
Experiment: Ba/F3 viability assay (CellTiter-Glo), parental
Format: cell-based
Conditions: Mus musculus, BaF3, anti-proliferation
pIC50: −log10 of the molar value.

For orientation, consider the following solved cases.
{"molecule": "C[C@H]1CCOc2c(cnn2C)-c2nccc(n2)Nc2cc3c(cn2)c(-c2cnn(CCCN4CCOCC4)c2)nn31", "experimental-result": "6.00 to 7.00"}
{"molecule": "Cc1nc(-c2nn3c4cc(ncc24)Nc2ccnc(n2)-c2cnn(C)c2OCC[C@@H]3C)sc1CN(C)C", "experimental-result": "6.00 to 7.00"}
{"molecule": "CC(C)N(C)Cc1ccc(-c2nn3c4cc(ncc24)Nc2ccnc(n2)-c2cnn(C)c2OCC[C@@H]3C)n1C", "experimental-result": "6.00 to 7.00"}
{"molecule": "CCCN1CCN(Cc2cnc(-c3nn4c5cc(ncc35)Nc3ccnc(n3)-c3cnn(C)c3OCC[C@@H]4C)s2)CC1", "experimental-result": "6.00 to 7.00"}
{"molecule": "CCN1CCc2c(cc(-c3nn4c5cc(ncc35)Nc3ccnc(n3)-c3cnn(C)c3OCC[C@@H]4C)n2C)C1C (some centres unmarked)", "experimental-result": "6.00 to 7.00"}
{"molecule": "C[C@H]1CCOc2c(cnn2C)-c2nccc(n2)Nc2cc3c(cn2)c(-c2ccc(CN4CCN(CCF)CC4)n2C)nn31", "experimental-result": "6.00 to 7.00"}

Items follow; give pIC50 for each.
1. C[C@H]1CCOc2c(cnn2C)-c2nccc(n2)Nc2cc3c(cn2)c(-c2cc(F)cc(OCCN(C)C)c2)nn31
2. C[C@H]1CCOc2c(cnn2C)-c2nccc(n2)Nc2cc3c(cn2)c(-c2cccc(CN4CCN(C)CC4)c2)nn31
3. C[C@H]1CCOc2c(cnn2C)-c2nccc(n2)Nc2cc3c(cn2)c(-c2csc(CN4CCN(C)CC4)n2)nn31
4. CC1CCCOc2c(cnn2C)-c2nccc(n2)Nc2cc3c(cn2)c(-c2ccc(CN4CCN(C5CC5)CC4)o2)nn31 (centres unmarked)

Result:
6.00 to 7.00
6.00 to 7.00
6.00 to 7.00
6.00 to 7.00

Items follow; give pIC50 for each.
1. CC1CCCOc2c(cnn2C)-c2nccc(n2)Nc2cc3c(cn2)c(N2CCCC2)nn31 (centres unmarked)
2. CC1CCOc2c(cnn2C)-c2nccc(n2)Nc2cc3c(cn2)c(N2CCC2)nn31 (centres unmarked)
3. Cc1c(-c2nn3c4cc(ncc24)Nc2ccnc(n2)-c2cnn(C)c2OCCCC3C)cnn1CCC(C)(C)O (centres unmarked)

Result:
6.00 to 7.00
≤ 6.00
6.00 to 7.00

Items follow; give pIC50 for each.
1. CC1CCOc2c(cnn2C)-c2nccc(n2)Nc2cc3c(cn2)c(N2CC(C(C)(C)O)C2)nn31 (centres unmarked)
2. C[C@H]1CCOc2c(cnn2C)-c2nccc(n2)Nc2cc3c(cn2)c(-c2ccc(CN(C)CCCF)n2C)nn31

Result:
6.00 to 7.00
6.00 to 7.00

Items follow; give pIC50 for each.
1. C[C@H]1CCOc2c(cnn2C)-c2nccc(n2)Nc2cc3c(cn2)c(-c2cccc(N4CC[C@@H](N(C)C)C4)c2)nn31
2. CCN(CC)Cc1ccc(-c2nn3c4cc(ncc24)Nc2ccnc(n2)-c2cnn(C)c2OCC[C@@H]3C)n1C
3. C[C@H]1CCOc2c(cnn2C)-c2nccc(n2)Nc2cc3c(cn2)c(-c2ccncc2)nn31

Result:
1: 6.00 to 7.00; 2: 6.00 to 7.00; 3: 6.00 to 7.00

Items follow; give pIC50 for each.
1. C[C@H]1CCOc2c(cnn2C)-c2nccc(n2)Nc2cc3c(cn2)c(-c2ccc(CN(C)C)n2C)nn31
2. C[C@H]1CCOc2c(cnn2C)-c2nccc(n2)Nc2cc3c(cn2)c(-c2cc(CN4CCOCC4)n(C)c2)nn31
3. Cn1ncc2c1OCCCn1nc(N3CCC3)c3cnc(cc31)Nc1ccnc-2n1
4. CCN(CC)CCOc1cc(-c2nn3c4cc(ncc24)Nc2ccnc(n2)-c2cnn(C)c2OCC[C@@H]3C)ccc1Cl

Result:
["6.00 to 7.00", "6.00 to 7.00", "6.00 to 7.00", "6.00 to 7.00"]

Items follow; give pIC50 for each.
1. CC1CCOc2c(cnn2C)-c2nccc(n2)Nc2cc3c(cn2)c(-c2cc(CN4CCN(C)CC4)cn2C)nn31 (centres unmarked)
2. C[C@H]1CCOc2c(cnn2C)-c2nccc(n2)Nc2cc3c(cn2)c(-c2cccc(N4CC[C@H](N(C)C)C4)c2)nn31
3. CC1CCCOc2c(cnn2C)-c2nccc(n2)Nc2cc3c(cn2)c(-c2nnc(CN4CCN(C)CC4)o2)nn31 (centres unmarked)
4. C[C@H]1CCOc2c(cnn2C)-c2nccc(n2)Nc2cc3c(cn2)c(N2CC[C@@H](CN(C)CCF)C2)nn31
5. CN(C)CC1CCN(c2nn3c4cc(ncc24)Nc2ccnc(n2)-c2cnn(C)c2OCCC3)C1 (centres unmarked)
6. C[C@H]1CCOc2c(cnn2C)-c2nccc(n2)Nc2cc3c(cn2)c(N2CC[C@H](CN(C)CCF)C2)nn31

Result:
1: 7.00 to 8.00; 2: 6.00 to 7.00; 3: ≤ 6.00; 4: 7.00 to 8.00; 5: 6.00 to 7.00; 6: 6.00 to 7.00

Items follow; give pIC50 for each.
1. Cn1ncc2c1OCCC(C)(C)n1nc(N3CCC3)c3cnc(cc31)Nc1ccnc-2n1
2. C[C@H]1CCOc2c(cnn2C)-c2nccc(n2)Nc2cc3c(cn2)c(-c2ccc(CN(C)C)cc2)nn31
3. CC1CCCOc2c(cnn2C)-c2nccc(n2)Nc2cc3c(cn2)c(-c2cc(CN4CCN(C)CC4)nn2C)nn31 (centres unmarked)
4. CCCn1cc(-c2nn3c4cc(ncc24)Nc2ccnc(n2)-c2cnn(C)c2OCC[C@@H]3C)cc1CN1CCOCC1

Result:
1: ≤ 6.00; 2: 6.00 to 7.00; 3: 6.00 to 7.00; 4: 6.00 to 7.00
